Taken from patent EP4768499A1.

Assay: Membrane permeability test using Caco-2 cells with preincubation
Type: in vitro ADME
Conditions: Caco-2; preincubation 20 to 24 hours; Apical FaSSIF/HBSS pH 6.0, Basal HBSS 4% BSA pH 7.4; 180 minutes; read-out: Caco2 Papp
Starred links: 1 amine or outer side, 2 acyl side, 3 side chain; linkers in the order of their positions; H or OH if unused. Positions of bridges follow the written chain, without caps; N, C: chain ends. Non-standard residues stand in square brackets, D forms with d. Residues, ends and D or L forms follow the SMILES beside them. *: point of attachment. NMeF = CN[C@@H](Cc1ccccc1)C(=O)O; NMeGABA = CN(CCCC(=O)[*:2])[*:1]; NMeI = CC[C@H](C)[C@H](NC)C(=O)O; NMeL = CN[C@@H](CC(C)C)C(=O)O; NMeV = CN[C@H](C(=O)O)C(C)C; NMeAbu = CC[C@H](NC)C(=O)O; NMeA = CN[C@@H](C)C(=O)O; Piperidide = C1CCN(*)CC1; tBu = CC(C)(C)*
Documented Papp A→B across a set of compounds
In your response, put the unit directly after the numeric value.

- compound: "CC[C@H](C)[C@H]1C(=O)N[C@@H](Cc2ccccc2)C(=O)N2CCC[C@H]2C(=O)N(C)[C@@H](CC(C)C)C(=O)N[C@@H](COC(C)(C)C)C(=O)N(C)[C@@H](Cc2ccccc2)C(=O)N[C@@H]([C@@H](C)O)C(=O)N(C)[C@@H](CC)C(=O)N2CCC[C@H]2C(=O)N(C)[C@@H](CC(C)C)C(=O)N[C@@H](C(C)C)C(=O)N[C@H](C(=O)N2CCCCC2)CC(=O)N(C)CCCC(=O)N(C)[C@@H](CC(C)C)C(=O)N1C [pd042] ([NMeGABA][NMeL][NMeI]FP[NMeL]S(tBu)[NMeF]T[NMeAbu]P[NMeL]VD-Piperidide; lactam N-14)"
  Papp A→B: "0.59 ×10⁻⁶ cm/s"

What does the data say about its Papp A→B? Entry: CC[C@H](C)[C@@H]1NC(=O)[C@H](C)NC(=O)[C@H](C(C)C)N(C)C(=O)[C@H](COC(C)(C)C)NC(=O)[C@H](C)N(C)C(=O)C[C@@H](C(=O)N2CCCCC2)NC(=O)[C@H](C(C)C)NC(=O)[C@H](Cc2ccccc2)N(C)C(=O)[C@H](CC(C)C)N(C)C(=O)[C@H]([C@@H](C)O)NC(=O)[C@H](CC)N(C)C(=O)[C@H](Cc2ccccc2)N(C)C(=O)[C@H](C)NC(=O)[C@@H]2CCCN2C1=O [pd025] ([NMeA]S(tBu)[NMeV]AIPA[NMeF][NMeAbu]T[NMeL][NMeF]VD-Piperidide; lactam N-14) 0.05 ×10⁻⁶ cm/s

---

System: Caco-2 cells
Assay: Membrane permeability test using Caco-2 cells with preincubation
Format: in vitro ADME
Conditions: Caco-2 cells, preincubation 20 to 24 hours; apical FaSSIF/HBSS 1% DMSO pH 6.0, basal HBSS 4% BSA pH 7.4; basal sample at 180 minutes
Starred links: 1 amine or outer side, 2 acyl side, 3 side chain; linkers in the order of their positions; H or OH if unused. Positions of bridges follow the written chain, without caps; N, C: chain ends. Non-standard residues stand in square brackets, D forms with d. Residues, ends and D or L forms follow the SMILES beside them. *: point of attachment. NMeF = CN[C@@H](Cc1ccccc1)C(=O)O; NMeI = CC[C@H](C)[C@H](NC)C(=O)O; NMeβAla = CN(CCC(=O)[*:2])[*:1]; NMeD = CN[C@@H](CC(=O)O)C(=O)O; NMeL = CN[C@@H](CC(C)C)C(=O)O; NMeV = CN[C@H](C(=O)O)C(C)C; d(β3hA) = C[C@@H](N)CC(=O)O; NMeAbu = CC[C@H](NC)C(=O)O; NMeA = CN[C@@H](C)C(=O)O; Piperidide = C1CCN(*)CC1; Abu = CC[C@H](N)C(=O)O; NBuGly = CCCCNCC(=O)O; Sar = CNCC(=O)O; tBu = CC(C)(C)*
quantity_kind: Caco2 Papp (10^-6 cm/sec)

- compound: "CC[C@H](C)[C@@H]1NC(=O)[C@H](CC(C)C)N(C)C(=O)CN(C)C(=O)C[C@@H](C(=O)N2CCCCC2)N(C)C(=O)CNC(=O)[C@H](C)N(C)C(=O)[C@H](CC)N(C)C(=O)[C@H](C(C)C)N(C)C(=O)[C@H](C)N(C)C(=O)[C@H](Cc2ccccc2)N(C)C(=O)[C@H](CC(C)C)NC(=O)[C@H](Cc2ccccc2)N(C)C(=O)[C@H](C(C)C)NC(=O)[C@H](CC(C)C)N(C)C1=O [pd085] ([Sar][NMeL]I[NMeL]V[NMeF]L[NMeF][NMeA][NMeV][NMeAbu][NMeA]G[NMeD]-Piperidide; lactam N-14)"
  tgt: "Caco-2 cells"
  quantity_kind: "Caco2 Papp (10^-6 cm/sec)"
  measured_value: "0.17 10^-6 cm/sec"

Suppose we examine the compound CC[C@H](C)[C@H]1C(=O)N[C@@H](CC(C)C)C(=O)N(C)[C@@H](CC(C)C)C(=O)N2CCC[C@H]2C(=O)N(C)[C@@H](C(C)C)C(=O)N[C@H](C(=O)N2CCCCC2)CC(=O)N(C)[C@@H](C)C(=O)N(C)[C@@H](CC(C)C)C(=O)N[C@@H](COC(C)(C)C)C(=O)N(C)[C@@H](Cc2ccccc2)C(=O)N(C)[C@@H](CC)C(=O)N(C)[C@@H](Cc2ccccc2)C(=O)N[C@@H]([C@@H](C)O)C(=O)N1C [pd119] ([NMeA][NMeL]S(tBu)[NMeF][NMeAbu][NMeF]T[NMeI]L[NMeL]P[NMeV]D-Piperidide; lactam N-13) ; what Caco2 Papp (10^-6 cm/sec) value has been reported? 0.50 10^-6 cm/sec

Field request: Caco2 Papp (10^-6 cm/sec) | item: CCCCN1CC(=O)N(C)[C@@H](CC)C(=O)N[C@H](C(=O)N2CCCCC2)CC(=O)N(C)[C@@H](C)C(=O)N[C@@H]([C@@H](C)CC)C(=O)N(C)[C@@H](Cc2ccccc2)C(=O)N(C)[C@@H](CC(C)C)C(=O)N[C@@H](C(C)C)C(=O)N(C)CC(=O)N[C@@H](CC(C)C)C(=O)N(C)[C@@H](Cc2ccccc2)C(=O)N(C)[C@@H](C)C(=O)N[C@@H](CC(C)C)C1=O [pd099] ([NMeA]I[NMeF][NMeL]V[Sar]L[NMeF][NMeA]L[NBuGly][NMeAbu]D-Piperidide; lactam N-13) 0.41 10^-6 cm/sec

Which Caco2 Papp (10^-6 cm/sec) value is on record for CC[C@@H]1NC(=O)[C@H](CC(C)C)N(C)C(=O)[C@H]([C@@H](C)CC)NC(=O)CN(C)C(=O)C[C@@H](C)NC(=O)[C@H](C(C)C)N(C)C(=O)[C@H](COC(C)(C)C)NC(=O)[C@H](CC(C)C)N(C)C(=O)[C@H](Cc2ccccc2)N(C)C(=O)[C@H](C)NC(=O)[C@H](C(C)C)NC(=O)CN(C)C(=O)[C@H]([C@@H](C)O)NC(=O)[C@H](CC(C)C)N(C)C1=O [pd011] (cyclo(A[NMeF][NMeL]S(tBu)[NMeV][d(β3hA)][Sar]I[NMeL][Abu][NMeL]T[Sar]V)) ? 0.11 10^-6 cm/sec

What value of Caco2 Papp (10^-6 cm/sec) has been recorded for this entry: CC[C@@H]1NC(=O)[C@H](CC(C)C)N(C)C(=O)C[C@@H](C(=O)N2CCCCC2)N(C)C(=O)[C@H](C(C)C)NC(=O)[C@H](CC(C)C)N(C)C(=O)[C@H](C)NC(=O)[C@H](CC)N(C)C(=O)[C@H](C(C)C)NC(=O)[C@H](CC(C)C)N(C)C(=O)[C@H](C)N(C)C(=O)[C@H](Cc2ccccc2)N(C)C(=O)[C@H](C(C)C)NC(=O)[C@@H]2CCCN2C(=O)[C@H](C(C)C)N(C)C1=O [pd078] ([NMeL][Abu][NMeV]PV[NMeF][NMeA][NMeL]V[NMeAbu]A[NMeL]V[NMeD]-Piperidide; lactam N-14) 2.75 10^-6 cm/sec

Recorded Caco2 Papp (10^-6 cm/sec) of CCCCN1CC(=O)N[C@@H](C)C(=O)N(C)[C@@H](Cc2ccccc2)C(=O)N[C@@H](CC(C)C)C(=O)N[C@@H](C)C(=O)N(C)[C@@H](C(C)C)C(=O)N[C@H](C(=O)N2CCCCC2)CC(=O)N[C@H](C(C)C)C(=O)N(C)[C@@H](Cc2ccccc2)C(=O)N[C@@H](CC)C(=O)N(C)[C@@H](C(C)C)C(=O)N(C)CCC(=O)N[C@@H]([C@@H](C)O)C(=O)N(C)[C@@H](CC(C)C)C1=O [pd019] ([dV][NMeF][Abu][NMeV][NMeβAla]T[NMeL][NBuGly]A[NMeF]LA[NMeV]D-Piperidide; lactam N-14) , please. <0.11 10^-6 cm/sec

Reported Caco2 Papp (10^-6 cm/sec) for CC[C@@H]1NC(=O)CN(C)C(=O)[C@H]([C@@H](C)O)NC(=O)[C@H](CC(C)C)N(C)C(=O)[C@H](C(C)C)NC(=O)[C@H](Cc2ccccc2)N(C)C(=O)[C@H](C)N(C)C(=O)[C@@H](C)NC(=O)C[C@@H](C)NC(=O)[C@H](C(C)C)N(C)C(=O)[C@H](Cc2ccccc2)N(C)C(=O)[C@H](COC(C)(C)C)NC(=O)[C@H](CC(C)C)N(C)C1=O [pd128] (cyclo([Abu][NMeL]S(tBu)[NMeF][NMeV][d(β3hA)][dA][NMeA][NMeF]V[NMeL]T[Sar])) : what is it? 0.05 10^-6 cm/sec

GET /values?readout=Caco2 Papp (10^-6 cm/sec)&item= CC[C@H](C)[C@@H]1NC(=O)[C@H](C)N(C)C(=O)C[C@@H](C(=O)N2CCCCC2)NC(=O)[C@H](CC)N(C)C(=O)[C@H](COC(C)(C)C)NC(=O)[C@H](CC(C)C)N(C)C(=O)[C@H](C)N(C)C(=O)[C@H](CC(C)C)N(C)C(=O)[C@H](Cc2ccccc2)N(C)C(=O)CN(C)C(=O)[C@H]([C@@H](C)O)NC(=O)[C@H](CC(C)C)N(C)C(=O)[C@H](C(C)C)NC(=O)[C@H](Cc2ccccc2)N(C)C1=O [pd045] ([NMeA]I[NMeF]V[NMeL]T[Sar][NMeF][NMeL][NMeA][NMeL]S(tBu)[NMeAbu]D-Piperidide; lactam N-14) 0.32 10^-6 cm/sec
